- System Tested: UniProt Q02156
- Sequence (Q02156 whole entry): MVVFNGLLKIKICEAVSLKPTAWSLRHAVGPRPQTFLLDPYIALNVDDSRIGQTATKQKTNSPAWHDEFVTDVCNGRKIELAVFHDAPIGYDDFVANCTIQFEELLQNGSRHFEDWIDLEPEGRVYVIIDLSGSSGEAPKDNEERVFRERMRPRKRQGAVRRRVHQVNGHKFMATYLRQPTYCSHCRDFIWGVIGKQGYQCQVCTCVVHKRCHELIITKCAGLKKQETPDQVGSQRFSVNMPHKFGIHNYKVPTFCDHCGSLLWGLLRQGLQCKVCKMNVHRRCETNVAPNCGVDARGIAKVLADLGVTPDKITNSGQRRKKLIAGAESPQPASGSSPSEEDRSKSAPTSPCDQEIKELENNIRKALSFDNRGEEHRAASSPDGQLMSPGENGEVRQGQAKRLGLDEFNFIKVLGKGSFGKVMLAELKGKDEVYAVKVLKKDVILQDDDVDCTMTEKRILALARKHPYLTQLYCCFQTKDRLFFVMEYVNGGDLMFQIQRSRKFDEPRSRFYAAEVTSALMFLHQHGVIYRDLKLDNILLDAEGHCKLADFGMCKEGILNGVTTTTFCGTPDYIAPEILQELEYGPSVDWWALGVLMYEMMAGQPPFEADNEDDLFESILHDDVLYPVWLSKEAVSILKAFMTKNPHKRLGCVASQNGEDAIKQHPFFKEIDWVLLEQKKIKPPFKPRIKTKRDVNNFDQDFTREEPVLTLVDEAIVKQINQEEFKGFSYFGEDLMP
Assay Metric: pKd
Formally, pKd is defined as -log10 of the concentration c, with c in mol/L.

*Q* Value lookup for pKd; key = CC(C)[C@H]1C(=O)N[C@H](CO)Cc2cc(NC(=O)CCCCCCCCCCCCC(=O)Nc3ccc4c(c3)N(C)[C@@H](C(C)C)C(=O)N[C@H](CO)C4)ccc2N1C
*A* 9.43
